# target-of-assay: T1, raCDH19(1-43)::FLAG::raCDH19(44-770), on 293T cells (rat)
# T1 construct: Entry holds leader (1-43), Flag tag and CDH19 part; leader left out; also called Ra EC1-5
# T1 chain: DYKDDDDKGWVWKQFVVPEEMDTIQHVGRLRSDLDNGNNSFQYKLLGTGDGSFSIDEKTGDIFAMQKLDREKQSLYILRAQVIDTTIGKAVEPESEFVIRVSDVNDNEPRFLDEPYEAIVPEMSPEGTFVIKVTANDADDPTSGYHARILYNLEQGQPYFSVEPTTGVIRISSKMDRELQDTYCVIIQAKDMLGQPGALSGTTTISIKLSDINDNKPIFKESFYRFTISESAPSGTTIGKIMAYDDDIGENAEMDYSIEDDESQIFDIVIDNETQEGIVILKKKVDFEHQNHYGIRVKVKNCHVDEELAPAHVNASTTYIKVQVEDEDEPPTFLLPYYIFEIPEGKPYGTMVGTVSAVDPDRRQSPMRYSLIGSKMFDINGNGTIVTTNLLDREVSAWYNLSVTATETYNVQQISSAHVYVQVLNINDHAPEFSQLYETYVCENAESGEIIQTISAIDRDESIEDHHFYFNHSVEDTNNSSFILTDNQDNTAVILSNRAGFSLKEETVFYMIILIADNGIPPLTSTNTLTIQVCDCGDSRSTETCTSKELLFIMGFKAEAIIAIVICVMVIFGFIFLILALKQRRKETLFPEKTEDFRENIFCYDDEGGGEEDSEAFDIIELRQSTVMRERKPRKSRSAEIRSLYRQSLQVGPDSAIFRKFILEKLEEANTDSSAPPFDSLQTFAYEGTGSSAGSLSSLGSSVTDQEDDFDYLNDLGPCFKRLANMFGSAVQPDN
# protocol-details: FACS, transfected 293T
outcome-measure: binding result

* hu anti-<huCDH19> 23A10.3 (1-474)(L92Q) VH::huIgG1z / 23A10.3 (1-231)(C42S) VL::huLLC-C2 (Ab ID 14077) (antibody, V domains shown, Engineered variant of 23A10) VH: QVQLVESGGGVVQPGRSLRLSCAASGFTFSRYGIHWVRQAPGKGLEWVAVIWYDGSNKYYADSVKGRFTISRDNSKNTLYLQMNSLRAEDSAVYYCARRAGIPGTTGYYYGMDVWGQGTTVTVSS VL: SYELTQPPSVSVSPGQTASITCSGDRLGEKYVSWYQQKPGQSPILVIYQDNKWPSGIPERFSGSNSGNTATLTISGTQAMDEADYYCQAWDSSTVVFGGGTKLTVLG | binds
* anti-CDH19 antibody 2G6 (Ab ID 13588) (antibody, human IgG1, lambda, V domains shown) VH: QVQLVESGGGVVQPGRSLRLSCAASGFTFSSYGMHWVRQAPGKGLEWVAFIWYDGSNKYYADSVKDRFTISRDNSKNTLYLQMKSLRAEDTAVYYCARRAGIIGTIGYYYGMDVWGQGTTVTVSS VL: SYELTQPPSVSVSPGQTASITCSGDRLGEKYTCWYQQRPGQSPLLVIYQDTKRPSGIPERFSGSNSGNTATLTISGTQAMDEADYYCQAWDSSTVVFGGGTKLTVLG | binds
* hu anti-<huCDH19> 4B10 VH::huIgG1z / 4B10 VL::huKLC (Ab ID 13590) (antibody, V domains shown) VH: QVQLVESGGGVVQPGRSLRLSCAASGFTFSSYDMHWVRQAPGKGLEWVAVISYDGTNEYYADSVKGRFTISRDTSKNTLYLQMNSLRAEDTAVYYCARERYFDWSFDYWGQGTLVSVSS VL: EIVLTQSPGTLSLSPGERATLSCRASQSVSNTYLAWYHQRPGQAPRLLIYGASSRATGIPDRFSGSGSGTDFALTISSLEPEDFAVYYCQQYSNSWTFGQGTKVEIKR | binds
